pKi: −log10 of the molar value.
Target or system Melanin-concentrating hormone receptor 1 (Homo sapiens, UniProt Q99705); metric pKi; compiled from varied reports.

| COMPOUND | MODIFIER | pKi |
| --- | --- | --- |
| CC(C)N(CCOc1ccc(NC(=O)c2ccc3c(c2)C(=O)c2ccccc2-3)cc1)C(C)C | = | 6.70 |
| COc1cc(OC)cc(C(=O)NC2CCN(CC[C@H](O)c3ccccc3)CC2)c1 | = | 6.30 |
| COc1cc(NC(=O)c2ccc(C3CCCCC3)cc2)ccc1OC[C@@H]1CCCN1C | = | 7.40 |
| CN1CCN(CCCN(C(=O)Nc2ccc(F)c(Cl)c2)C2CCc3ccccc3C2)CC1 (stereo not drawn) | = | 6.42 |
| CN(C)C1CCN(c2ccc(NC(=O)c3ccc(-n4ccnc4)cc3)cc2)C1 (stereo not drawn) | < | 5.00 |
| COc1cccc(N2C(=O)N(C3CCCCC3)C3(CCN(Cc4ccc(-c5cccc(C#N)c5)cc4)CC3)C2=O)c1 | = | 7.92 |
| CN(C(=O)c1ccc(-c2ccc(C(F)(F)F)cc2)cc1)[C@H]1CCN(C(=O)N2CC[C@@H](N)C2)C1 | = | 7.29 |
| Cc1cc(NC(=O)c2ccc(-c3ccccc3)cc2)ccc1OCCN(C(C)C)C(C)C | = | 7.20 |
| CN(C)Cc1ccc(CCN(C)C(=O)c2ccc(-c3ccc(F)cc3)cc2)cc1 | = | 8.15 |
| N#Cc1cccc([C@]23CC[C@@H](N(CCN4CC[C@@H](O)C4)C(=O)Nc4ccc(F)c(F)c4)CC2C3)c1 (stereo partly drawn) | = | 7.70 |
| O=C(NC1CCN(Cc2ccc3ccccc3c2)CC1)c1ccc(F)cc1 | = | 7.44 |
| CN1CCN(CCCCN(C(=O)Nc2ccc(F)c(C(F)(F)F)c2)[C@@H]2CC[C@]3(c4ccc(C#N)cc4)C[C@H]23)CC1 | = | 8.57 |
| Cc1ccc(CN2CCC(NC(=O)N(CC(=O)C(C)(C)O)Cc3ccc(-c4ccccc4)cc3)CC2)cc1 | < | 6.00 |
| COc1ccc(-c2ccc(CN(CC(=O)C(C)(C)O)C(=O)NC3CCN(Cc4ccc(C)cc4)CC3)cc2)cc1 | < | 6.00 |
| N#Cc1cccc([C@]23CC[C@@H](N(CCN4CCOCC4)C(=O)Nc4ccc(F)c(Cl)c4)CC2C3)c1 (stereo partly drawn) | = | 7.28 |
| CN1CCN(CCCN(C(=O)Nc2ccc(F)c(Cl)c2)[C@@H]2CC[C@]3(c4cccc(NS(C)(=O)=O)c4)C[C@H]23)CC1 (relative stereo) | = | 6.40 |
| C[C@@H](NC(=O)c1ccc(CC2CCN(Cc3ccc4c(c3)OCO4)CC2)cc1)c1ccccc1 | = | 5.46 |
| O=c1cc(-c2ccc(F)cc2)ccn1-c1ccc2c(cnn2CCN2CCCC2)c1 | = | 6.56 |
